Values were extracted from ChEMBL document CHEMBL4038304.

System: Human immunodeficiency virus 1
Assay: Antiviral activity against HIV1 harboring reverse transcriptase K103N mutant infected in human […] cells assessed as protection against virus-induced cytopathic effect measured on day 5 post infection by MTT assay
Format: functional, cell-based
Details: Human immunodeficiency virus 1, 120 h
Field: pEC50. Provide a value for each of the molecules that follow.
Expect pEC50 as a plain number equal to -log10 of the molar concentration.

// fetch pEC50 given entry Cc1cc(C)cc(S(=O)(=O)c2c(C(=O)NCc3ccc4nc(N)[nH]c4c3)[nH]c3ccc(Cl)cc23)c1
7.74

// fetch pEC50 given entry Cc1cc(C)cc(S(=O)(=O)c2c(C(=O)NC(C)C(=O)NC(C)c3ccccc3F)[nH]c3ccc(Cl)cc23)c1 (racemic)
7.44

// fetch pEC50 given entry Cc1cc(C)cc(S(=O)(=O)c2c(C(=O)NCc3cccc(F)c3F)[nH]c3ccc(Cl)cc23)c1
9.15

// fetch pEC50 given entry Cc1cc(C)cc(S(=O)(=O)c2c(C(=O)NCc3cccc(N)c3)[nH]c3ccc(Cl)cc23)c1
9.15
